These measurements were taken from ChEMBL document CHEMBL1142222.

ASSAYED_SYSTEM: Sodium channel protein type 9 subunit alpha (Homo sapiens)
PROCEDURE_TEXT: Inhibition of human Nav1.7 channel expressed in HEK293 cells at -60 mV by patch clamp method
Assay type: cell-based
QUANTITY_KIND: IC50 (µM)

• COc1cc(NC(=O)c2ccc(-c3ccc(Cl)cc3)o2)cc(OC)c1 = 6.74

====

ASSAYED_SYSTEM: Sodium channel protein type 2 subunit alpha (Homo sapiens, UniProt Q99250)
PROCEDURE_TEXT: Inhibition of human Nav1.2 channel expressed in HEK293 cells at -120 mV by patch clamp method
Assay type: cell-based
QUANTITY_KIND: IC50 (µM)

• COc1cc(NC(=O)c2ccc(-c3ccc(Cl)cc3)o2)cc(OC)c1 = 9.49

====

ASSAYED_SYSTEM: Sodium channel protein type 5 subunit alpha (Homo sapiens)
Sequence (Q14524 whole entry): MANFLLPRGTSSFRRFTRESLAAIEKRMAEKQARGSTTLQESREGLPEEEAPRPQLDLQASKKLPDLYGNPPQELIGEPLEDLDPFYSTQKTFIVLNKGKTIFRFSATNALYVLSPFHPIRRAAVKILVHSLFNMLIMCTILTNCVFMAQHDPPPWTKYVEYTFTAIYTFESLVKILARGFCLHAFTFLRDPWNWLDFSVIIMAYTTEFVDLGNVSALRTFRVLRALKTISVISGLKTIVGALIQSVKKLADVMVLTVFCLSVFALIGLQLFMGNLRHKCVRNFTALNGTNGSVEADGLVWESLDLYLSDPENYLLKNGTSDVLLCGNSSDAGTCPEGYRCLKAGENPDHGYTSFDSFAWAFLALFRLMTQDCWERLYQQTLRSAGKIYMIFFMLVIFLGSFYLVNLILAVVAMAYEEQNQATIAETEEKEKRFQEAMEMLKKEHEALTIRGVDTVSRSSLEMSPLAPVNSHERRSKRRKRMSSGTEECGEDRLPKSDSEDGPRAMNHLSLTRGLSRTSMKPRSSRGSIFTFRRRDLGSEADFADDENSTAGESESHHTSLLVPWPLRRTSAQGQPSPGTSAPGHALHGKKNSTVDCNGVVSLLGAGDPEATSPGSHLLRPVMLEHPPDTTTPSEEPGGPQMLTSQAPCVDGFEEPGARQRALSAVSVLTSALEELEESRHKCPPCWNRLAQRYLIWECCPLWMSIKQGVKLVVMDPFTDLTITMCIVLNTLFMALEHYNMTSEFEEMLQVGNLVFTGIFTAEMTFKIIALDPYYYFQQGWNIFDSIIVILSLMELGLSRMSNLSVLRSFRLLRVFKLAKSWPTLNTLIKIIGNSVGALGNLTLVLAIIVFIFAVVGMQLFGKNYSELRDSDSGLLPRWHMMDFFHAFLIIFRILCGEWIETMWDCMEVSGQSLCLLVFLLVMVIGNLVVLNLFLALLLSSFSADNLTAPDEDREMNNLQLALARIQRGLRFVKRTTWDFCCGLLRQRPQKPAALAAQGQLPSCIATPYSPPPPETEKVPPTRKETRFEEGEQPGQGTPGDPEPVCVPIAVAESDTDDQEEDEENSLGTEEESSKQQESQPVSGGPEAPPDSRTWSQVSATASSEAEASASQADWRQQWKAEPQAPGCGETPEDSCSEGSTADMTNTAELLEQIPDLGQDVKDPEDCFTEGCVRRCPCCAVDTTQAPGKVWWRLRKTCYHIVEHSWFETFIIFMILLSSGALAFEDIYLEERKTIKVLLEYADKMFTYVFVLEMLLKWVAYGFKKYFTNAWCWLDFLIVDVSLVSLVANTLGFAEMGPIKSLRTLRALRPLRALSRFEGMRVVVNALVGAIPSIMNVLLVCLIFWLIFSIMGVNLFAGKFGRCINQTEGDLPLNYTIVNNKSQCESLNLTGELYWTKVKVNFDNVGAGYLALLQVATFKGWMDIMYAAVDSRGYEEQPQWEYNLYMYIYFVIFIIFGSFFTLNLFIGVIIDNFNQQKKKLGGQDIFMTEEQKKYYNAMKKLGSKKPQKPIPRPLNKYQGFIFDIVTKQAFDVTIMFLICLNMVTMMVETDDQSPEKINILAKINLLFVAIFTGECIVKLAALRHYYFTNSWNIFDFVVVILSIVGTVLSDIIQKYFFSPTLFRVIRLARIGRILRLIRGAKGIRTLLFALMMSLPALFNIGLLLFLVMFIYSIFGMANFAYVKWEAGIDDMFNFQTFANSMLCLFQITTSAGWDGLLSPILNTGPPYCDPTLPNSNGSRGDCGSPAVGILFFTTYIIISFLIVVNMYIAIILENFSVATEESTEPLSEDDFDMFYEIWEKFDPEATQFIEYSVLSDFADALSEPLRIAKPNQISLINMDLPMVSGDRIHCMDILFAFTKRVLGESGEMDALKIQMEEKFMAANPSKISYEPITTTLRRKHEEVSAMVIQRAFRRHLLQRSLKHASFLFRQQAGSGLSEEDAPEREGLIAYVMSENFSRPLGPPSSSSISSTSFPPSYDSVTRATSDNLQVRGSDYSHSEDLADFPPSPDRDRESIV
PROCEDURE_TEXT: Inhibition of human Nav1.5 channel expressed in HEK293 cells at -150 mV by patch clamp method
Type: cell-based
QUANTITY_KIND: IC50

- COc1cc(NC(=O)c2ccc(-c3ccc(Cl)cc3)o2)cc(OC)c1: 32.8 µM

====

ASSAYED_SYSTEM: UniProt P21728
Sequence (P21728 whole entry): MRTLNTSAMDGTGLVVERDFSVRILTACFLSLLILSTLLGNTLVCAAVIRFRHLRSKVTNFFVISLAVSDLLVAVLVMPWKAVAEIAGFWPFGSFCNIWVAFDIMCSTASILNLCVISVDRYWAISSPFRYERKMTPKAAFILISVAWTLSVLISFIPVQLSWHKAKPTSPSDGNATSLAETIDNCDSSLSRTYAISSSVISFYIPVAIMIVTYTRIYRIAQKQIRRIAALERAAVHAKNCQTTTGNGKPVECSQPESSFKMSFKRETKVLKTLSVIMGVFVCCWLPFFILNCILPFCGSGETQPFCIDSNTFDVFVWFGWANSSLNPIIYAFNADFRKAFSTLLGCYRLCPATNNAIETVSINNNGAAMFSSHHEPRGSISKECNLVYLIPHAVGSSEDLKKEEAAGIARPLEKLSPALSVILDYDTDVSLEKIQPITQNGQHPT
PROCEDURE_TEXT: Displacement of [3H]SCH-23390 from dopamine D1 receptor
QUANTITY_KIND: IC50 (µM)

* COc1cc(NC(=O)c2ccc(-c3ccc(Cl)cc3)o2)cc(OC)c1 | 7

====

ASSAYED_SYSTEM: Sodium channel protein type 9 subunit alpha (Homo sapiens, UniProt Q15858)
PROCEDURE_TEXT: Inhibition of human Nav1.7 channel expressed in HEK293 cells at -120 mV by patch clamp method
Assay type: cell-based
pIC50: −log10 of the molar value.
QUANTITY_KIND: pIC50

• COc1cc(NC(=O)c2ccc(-c3ccc(Cl)cc3)o2)cc(OC)c1 = 4.45

====

ASSAYED_SYSTEM: Sodium channel protein type 10 subunit alpha (Homo sapiens, UniProt Q9Y5Y9)
Sequence (Q9Y5Y9 whole entry): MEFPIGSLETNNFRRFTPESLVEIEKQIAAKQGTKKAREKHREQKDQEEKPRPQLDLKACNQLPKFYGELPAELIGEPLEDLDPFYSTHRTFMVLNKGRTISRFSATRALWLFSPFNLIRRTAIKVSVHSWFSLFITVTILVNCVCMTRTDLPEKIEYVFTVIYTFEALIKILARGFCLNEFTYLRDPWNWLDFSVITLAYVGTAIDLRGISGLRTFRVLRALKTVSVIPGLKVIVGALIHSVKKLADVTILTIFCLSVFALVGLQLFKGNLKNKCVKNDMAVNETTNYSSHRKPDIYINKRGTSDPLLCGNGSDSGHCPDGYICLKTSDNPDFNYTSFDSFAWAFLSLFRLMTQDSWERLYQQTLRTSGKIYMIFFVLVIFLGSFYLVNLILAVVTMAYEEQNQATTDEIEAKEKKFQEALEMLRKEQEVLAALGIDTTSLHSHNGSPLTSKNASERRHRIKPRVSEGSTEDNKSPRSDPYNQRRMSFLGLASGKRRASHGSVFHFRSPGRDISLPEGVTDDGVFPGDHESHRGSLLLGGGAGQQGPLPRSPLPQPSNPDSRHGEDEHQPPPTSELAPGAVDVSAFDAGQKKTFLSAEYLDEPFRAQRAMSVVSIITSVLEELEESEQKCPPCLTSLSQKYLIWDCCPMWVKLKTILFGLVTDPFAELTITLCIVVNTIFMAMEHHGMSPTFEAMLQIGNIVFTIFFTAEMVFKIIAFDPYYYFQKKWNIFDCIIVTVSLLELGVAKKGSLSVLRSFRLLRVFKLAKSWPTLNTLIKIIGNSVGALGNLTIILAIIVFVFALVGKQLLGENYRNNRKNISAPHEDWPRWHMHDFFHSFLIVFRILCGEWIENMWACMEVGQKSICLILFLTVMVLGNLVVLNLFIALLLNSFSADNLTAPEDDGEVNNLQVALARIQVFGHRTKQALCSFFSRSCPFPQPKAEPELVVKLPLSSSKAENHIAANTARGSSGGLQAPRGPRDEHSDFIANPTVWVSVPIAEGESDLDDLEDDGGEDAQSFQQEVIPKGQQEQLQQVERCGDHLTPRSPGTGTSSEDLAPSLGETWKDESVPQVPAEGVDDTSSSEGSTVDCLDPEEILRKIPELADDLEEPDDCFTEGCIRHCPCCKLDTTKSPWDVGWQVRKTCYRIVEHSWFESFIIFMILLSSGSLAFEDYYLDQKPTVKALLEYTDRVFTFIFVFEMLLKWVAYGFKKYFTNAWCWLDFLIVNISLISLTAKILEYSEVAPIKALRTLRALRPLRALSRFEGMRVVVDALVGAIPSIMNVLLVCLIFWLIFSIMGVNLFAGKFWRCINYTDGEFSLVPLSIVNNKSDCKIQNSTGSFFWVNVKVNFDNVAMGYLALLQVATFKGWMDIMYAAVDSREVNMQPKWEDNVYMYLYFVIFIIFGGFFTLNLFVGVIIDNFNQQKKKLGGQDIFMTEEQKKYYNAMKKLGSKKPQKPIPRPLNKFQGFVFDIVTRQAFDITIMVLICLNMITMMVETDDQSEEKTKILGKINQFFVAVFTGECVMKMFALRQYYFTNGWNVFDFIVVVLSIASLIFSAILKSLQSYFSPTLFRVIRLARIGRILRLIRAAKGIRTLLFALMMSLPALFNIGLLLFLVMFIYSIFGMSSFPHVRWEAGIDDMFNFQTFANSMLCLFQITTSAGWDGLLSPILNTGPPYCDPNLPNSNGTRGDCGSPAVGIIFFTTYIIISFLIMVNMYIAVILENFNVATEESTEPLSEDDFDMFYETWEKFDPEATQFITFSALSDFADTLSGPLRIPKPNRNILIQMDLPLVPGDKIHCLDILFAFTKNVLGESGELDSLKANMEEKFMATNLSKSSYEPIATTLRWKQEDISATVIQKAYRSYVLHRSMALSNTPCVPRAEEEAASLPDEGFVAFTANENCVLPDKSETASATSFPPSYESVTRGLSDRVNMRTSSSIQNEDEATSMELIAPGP
PROCEDURE_TEXT: Inhibition of human Nav1.8 channel expressed in HEK293 cells at -100 mV by patch clamp method
Assay type: cell-based
pIC50: −log10 of the molar value.
QUANTITY_KIND: pIC50

* COc1cc(NC(=O)c2ccc(-c3ccc(Cl)cc3)o2)cc(OC)c1 | 7.10

====

PROCEDURE_TEXT: Volume of distribution in rat
Type: ADME, organism-based
TEST_PARAMETERS: in vivo, read-out: Vbeta
QUANTITY_KIND: Vd (L/kg)

* COc1cc(NC(=O)c2ccc(-c3ccc(Cl)cc3)o2)cc(OC)c1 | 11.5
